Parameter Antimicrobial activity (MIC) P. aeruginosa PAO1: see the listing below.
Tested on: P. aeruginosa PAO1
Type: cell-based, Pseudomonas aeruginosa
Conditions: PAO1, 18 h
Bridge positions count the residues as written; N and C are the ends. Square brackets hold non-standard residues; d marks the D form. Peptide text beside a SMILES is read from it. * marks the point of attachment. Myristoyl = CCCCCCCCCCCCCC(=O)*; Lauroyl = CCCCCCCCCCCC(=O)*; dOrn = NCCC[C@@H](N)C(=O)O; Orn = NCCC[C@H](N)C(=O)O
# output: bare number, implied unit µg/mL

compound: CCCCCCCCCCCCCC(=O)N[C@H](CC(N)=O)C(=O)N[C@H](Cc1ccc(O)cc1)C(=O)N[C@H](Cc1c[nH]c2ccccc12)C(=O)N[C@H](CCCN)C(=O)N[C@@H](CCCN)C(=O)NCC(=O)N[C@H](CCCN)C(=O)N[C@@H](Cc1c[nH]c2ccccc12)C(=O)N[C@@H]1C(=O)N[C@@H]([C@@H](C)CC)C(=O)NCC(=O)N[C@@H](CO)C(=O)O[C@@H]1C [Compound 16] (Myristoyl-[dN][dY][dW][dOrn][Orn]G[dOrn]WTIGS; ester 9-C)
test-result: 32

Attention now shifts to the item below.
So for CCCCCCCCCCCC(=O)N[C@H](CC(N)=O)C(=O)N[C@H](Cc1ccc(O)cc1)C(=O)N[C@H](Cc1c[nH]c2ccccc12)C(=O)N[C@H](CCCN)C(=O)N[C@@H](CCCN)C(=O)NCC(=O)N[C@H](CCCN)C(=O)N[C@@H](Cc1c[nH]c2ccccc12)C(=O)N[C@@H]1C(=O)N[C@@H]([C@@H](C)CC)C(=O)NCC(=O)N[C@@H](CO)C(=O)O[C@@H]1C [Compound 15] (Lauroyl-[dN][dY][dW][dOrn][Orn]G[dOrn]WTIGS; ester 9-C) , the logged Antimicrobial activity (MIC) P. aeruginosa PAO1 turned out to be 16

* * *

# Antimicrobial activity (MIC) S. aureus USA300 per entry
System: S. aureus USA300
Type: cell-based, Staphylococcus aureus
Settings: USA300, 18 h
Bridge positions count the residues as written; N and C are the ends. Square brackets hold non-standard residues; d marks the D form. Peptide text beside a SMILES is read from it. * marks the point of attachment. ξ: configuration not given here. Hexanoyl(4ξ-Me) = CCC(C)CCC(=O)*; dOrn = NCCC[C@@H](N)C(=O)O; Orn = NCCC[C@H](N)C(=O)O; Butyryl = CCCC(=O)*

compound: CCC(C)CCC(=O)N[C@H](CC(N)=O)C(=O)N[C@H](Cc1ccc(O)cc1)C(=O)N[C@H](Cc1c[nH]c2ccccc12)C(=O)N[C@H](CCCN)C(=O)N[C@@H](CCCN)C(=O)NCC(=O)N[C@H](CCCN)C(=O)N[C@@H](Cc1c[nH]c2ccccc12)C(=O)N[C@@H]1C(=O)N[C@@H]([C@@H](C)CC)C(=O)NCC(=O)N[C@@H](CO)C(=O)O[C@@H]1C (some centres unmarked) [Compound 1, brevicidine] ({Hexanoyl(4ξ-Me)}-[dN][dY][dW][dOrn][Orn]G[dOrn]WTIGS; ester 9-C)
test-result: >32 µg/mL

Field Antimicrobial activity (MIC) S. aureus USA300 (entry CCCC(=O)N[C@H](CO)C(=O)N[C@H](Cc1ccc(O)cc1)C(=O)N[C@H](Cc1c[nH]c2ccccc12)C(=O)N[C@H](CCCN)C(=O)N[C@@H](CCCN)C(=O)NCC(=O)N[C@H](CCCN)C(=O)N[C@@H](Cc1c[nH]c2ccccc12)C(=O)N[C@@H]1C(=O)N[C@@H]([C@@H](C)CC)C(=O)N[C@@H](CC(N)=O)C(=O)NCC(=O)NCC(=O)O[C@@H]1C [Compound 20] (Butyryl-[dS][dY][dW][dOrn][Orn]G[dOrn]WTINGG; ester 9-C) ) reads >32 µg/mL
